tested on: PIM3; conditions: concentration: 1 μM, replicates: in singlicate; n = 1;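 also: KINOMEscan kinase panel screen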
endpointLabel: %Inh

Lab note: PIM3 assay, enter %Inh for O=C(NCCNc1ccnc(Nc2ccc(F)cc2)n1)Nc1ccc2c(c1)OCO2 here
11%

Enter %Inh (test system PIM3) for CCC(=O)c1c(-c2ccccc2)c2cc(Cl)ccc2c(=O)n1Cc1cc(S(C)(=O)=O)n(CC(N)=O)n1
9%

State the measured %Inh (PIM3) of Nc1ncnc2c1ncn2-c1cccc2ccccc12
0%

Report %Inh from PIM3 testing of Cc1cccc(-c2nc(Nc3ccc4c(cnn4C)c3)c3ccccc3n2)n1
21%

Enter recorded %Inh with PIM3 for Nc1nc(N)c2nc(-c3ccccc3)[nH]c2n1 here.
0%

* * *

tested on: ERBB3; conditions: concentration: 1 μM, replicates: in singlicate; n = 1
Assign %Inh to each entry below.

Return %Inh (reported value) for this compound: OCCCNc1nccc(-c2c(-c3cccc(C(F)(F)F)c3)nn3cc(C(F)(F)F)ccc23)n1 [GW630813]
12%

State its %Inh: Cc1cc(Nc2nc(-c3cccc(C)n3)nc3ccccc23)ccn1 [GW872411]
0%

Specify %Inh for COc1ccc(-c2cc3c(C)nc(N)nc3n([C@H]3CC[C@H](OCCO)CC3)c2=O)cn1 and stop.
0%

Please report %Inh for the following compound: Cc1ccc(-c2ccc3c(ccc4sc5c(c43)NC[C@@H](C)N=C5N(C)C)n2)cn1
0%

* * *

test system: MINK; construct: gene MINK1; settings: concentration: 1 μM, replicates: in singlicate; n = 1
I'd appreciate it if you marked entries satisfied when %Inh is lower than 3% and not satisfied when it is not.

Just wondering, is %Inh of COc1cc(Nc2ccnc3ccc(C(F)(F)F)cc23)cc(OC)c1OC below 3%?
not satisfied

# TODO verify %Inh < 3% strictly for this molecule: O=C(NCCNc1ccnc(Nc2ccc(F)cc2)n1)Nc1ccc2c(c1)OCO2
not satisfied

Lab note: %Inh threshold 3%. Does this molecule come in strictly under it? CCn1c(-c2ccoc2)nc2cnccc21
satisfied

In plain terms, does Nc1nc(-c2ccccc2F)c(-c2ccnc3ccccc23)s1 come in under 3% for %Inh?
not satisfied

Report whether reported %Inh is lower than 3% (strictly) for O=C(Nc1n[nH]c2nc(-c3ccccc3)c(Br)cc12)C1CC1
not satisfied

%Inh under 3%? Item: COc1ccc(-c2cc3c(C)nc(N)nc3n([C@H]3CC[C@H](O)CC3)c2=O)cn1
satisfied

Would you kindly verify if %Inh of Nc1nccc2scc(-c3ccc4c(c3)CCN4C(=O)Cc3ccccc3)c12 is strictly less than 3%?
not satisfied

Is 3% strictly greater than the molecule's reported %Inh? molecule: Cl.c1ccc(Cn2cnc3cc(Nc4ncnc5ccccc45)ccc32)cc1
satisfied

* * *

I'd appreciate it if you could supply %Inh values for the items below.
test system: MAP3K3; details: concentration: 1 μM, replicates: in singlicate; n = 1
The reply should be a number in %, with the unit left off.

Look up MAP3K3 data: %Inh of COc1cccc(-n2cnc3c(N)ncnc32)c1 [SKF-97416] , then report it.
22

Find the measured %Inh of Nc1nc(-c2ccccc2F)c(-c2ccnc3ccccc23)s1 [GW560459] with MAP3K3 as test system.
0

State, for MAP3K3, measured %Inh of the compound listed here: CCCC(=O)Nc1n[nH]c2ncc(-c3cccc4ccccc34)cc12 [SB-642057]
0

Fill in: %Inh on MAP3K3, entry CCC(=O)c1c(-c2ccccc2)c2cc(Cl)ccc2c(=O)n1Cc1cc(S(C)(=O)=O)n(CC(N)=O)n1
0

Answer briefly: %Inh recorded on MAP3K3 for Cc1cccc(-c2cc(-c3c[nH]nc3-c3ccccn3)ccn2)c1 [GW679395]
0

Identify measured %Inh obtained with MAP3K3 for COc1cccc(C2=C(Nc3cccc(C(=O)O)c3)C(=O)NC2=O)c1 [SB-390770] .
3

Give %Inh for this entry on MAP3K3: COc1ccc(-c2cc3c(C)nc(N)nc3n([C@H]3CC[C@H](OCCO)CC3)c2=O)cn1
0

Quote %Inh with test system MAP3K3 for CCn1c(-c2nonc2N)nc2ccccc21 [SB-693162/GW549034]
31

Send back MAP3K3 %Inh of CCC(=O)c1c(-c2ccccc2)c2cc(Cl)ccc2c(=O)n1Cc1ccc(C(=O)O)cc1 only.
0

State recorded %Inh with MAP3K3, entry Cc1c(Cn2c(C)nn3c(=O)cc(N4CCO[C@H](C)C4)nc23)cccc1C(F)(F)F [GSK2373690] , no comment.
0

# lookup: MAP3K3 %Inh, key = Cl.c1ccc(Cn2cnc3cc(Nc4ncnc5ccccc45)ccc32)cc1 [GW272142]
0

GET %Inh | system: MAP3K3 | item: Fc1cccc(CSc2nnc(-c3ccc4c(c3)CCO4)o2)c1
2

Report its %Inh with MAP3K3 as the test system: Nc1nc(N)c2nc(-c3ccccc3)[nH]c2n1 [SKF-12778]
13

Identify measured %Inh obtained with MAP3K3 for CN1C(=O)C(Nc2ccccc2)=C(c2ccccc2)C1=O [SB-300079] .
0

Retrieve %Inh on MAP3K3; query COc1cc2ncn(-c3cc(OCc4ccncc4Br)c(C(N)=O)s3)c2cc1OC [GW854278]
1

State %Inh on MAP3K3. Entry: COc1cc2ncn(-c3cc(OCc4ccc(S(C)(=O)=O)cc4)c(C(N)=O)s3)c2cc1OC [GW869979]
0

Send back MAP3K3 %Inh of COc1cc2nccc(Nc3cccc(Oc4ccccc4)c3)c2cc1OC.Cl [GW284543] only.
0

Fill: %Inh (MAP3K3) for this compound COc1cccc(C2=C(N(C)c3ccccc3)C(=O)NC2=O)c1 [SB-334865]
0

Report %Inh under test system MAP3K3 for COc1ccc(-c2coc3ccc(-c4nnc(SCc5cccc(C#N)c5)o4)cc23)cc1 .
12

* * *

system: BRAF; settings: concentration: 1 μM, replicates: in singlicate; n = 1
endpointLabel: %Inh

Report %Inh on BRAF for this entry: COc1cc(Nc2ccnc3ccc(C(F)(F)F)cc23)cc(OC)c1OC
8%

Name the value of %Inh reported for COc1cc(OC)cc(-c2cc3cnc(N)nc3nc2NC(=O)NC(C)(C)C)c1 when tested on BRAF.
10%

Lab note: record %Inh of COc1cc2nccc(Nc3cccc(Oc4ccccc4)c3)c2cc1OC.Cl tested on BRAF.
0%

// fetch %Inh; item: Cl.c1ccc(Cn2cnc3cc(Nc4ncnc5ccccc45)ccc32)cc1 ; system: BRAF
0%

Find %Inh for O=C1NC(=O)C(c2ccccc2)=C1Nc1cccc(O)c1 on BRAF and write it down.
0%

State measured %Inh of the compound COc1cccc(C2=C(N(C)c3ccccc3)C(=O)NC2=O)c1 with BRAF.
0%

Enter measured %Inh, system BRAF, for the compound shown: CCn1c(-c2ccoc2)nc2cnccc21
1%

State %Inh (BRAF) of Cc1c(Cn2c(C)nn3c(=O)cc(N4CCO[C@H](C)C4)nc23)cccc1C(F)(F)F .
0%

Fetch value of %Inh on BRAF for O=C(Nc1n[nH]c2nc(-c3ccccc3)c(Cl)cc12)C1CC1 .
62%

Using BRAF as the test system, report measured %Inh of CCC(=O)c1c(-c2ccccc2)c2cc(Cl)ccc2c(=O)n1Cc1cc(S(C)(=O)=O)n(CC(F)F)n1 .
13%

Check BRAF data and give %Inh for Cc1ccc(-c2ccc3c(ccc4sc5c(c43)NC[C@@H](C)N=C5N(C)C)n2)cn1 .
0%

Supply %Inh measured with BRAF for OCCCNc1nccc(-c2c(-c3cccc(C(F)(F)F)c3)nn3cc(C(F)(F)F)ccc23)n1 .
0%

Give BRAF %Inh for the following compound: CCCC(=O)Nc1n[nH]c2ncc(-c3cccc4ccccc34)cc12
0%

Recall the reported %Inh of CCCNC(=O)Nc1ccc(Oc2ncnc3ccn(C)c23)cc1 when tested on BRAF.
0%

State measured %Inh of the compound COc1ccc(CNC(=O)NC2CCN(c3ccnc(Nc4ccc(F)cc4)n3)C2)cc1 (stereo not shown) with BRAF.
3%

Report measured %Inh on BRAF; entry: FC(F)(F)c1ccc(-c2ncn(CCCN3CCOCC3)c2-c2ccncc2)cc1
0%

Report %Inh from BRAF testing of CCn1c(-c2nonc2N)nc2ccccc21
15%

Under BRAF: report %Inh of Cc1cc(Nc2nc(-c3cccc(C)n3)nc3ccccc23)ccn1 .
0%

State the measured %Inh (BRAF) of Cc1cccc(-c2cc(-c3c[nH]nc3-c3ccccn3)ccn2)c1
8%

* * *

system: MAPKAPK2; details: concentration: 1 μM, replicates: in singlicate; n = 1
Returns the class for an entry based on its %Inh. Class ranges: LOW (below 7%), MEDIUM (7% to below 20%), HIGH (20% or more)

Given FC(F)(F)c1ccc(-c2ncn(CCCN3CCOCC3)c2-c2ccncc2)cc1 , name the class its %Inh places it in.
MEDIUM

Into which bin does this compound go? CN(C)c1cc(-c2ccc3c(N)n[nH]c3c2)nc(N)n1
LOW

Given COc1cc(OC)cc(-c2cc3cnc(N)nc3nc2NC(=O)NC(C)(C)C)c1 , name the class its %Inh places it in.
LOW

Which class is correct for the following compound? CCC(=O)c1c(-c2ccccc2)c2cc(Cl)ccc2c(=O)n1Cc1cc(S(C)(=O)=O)n(CCC(C)(C)O)n1
HIGH

Band for the recorded %Inh of Nc1ncnc2c1ncn2-c1ccc(Cl)cc1 ?
MEDIUM

Please classify: Cl.c1ccc(Cn2cnc3cc(Nc4ncnc5ccccc45)ccc32)cc1
MEDIUM

State the band of Cc1nnc(-c2ccc(C)c(-c3ccc(C(=O)O)cc3)c2)o1
LOW

Just checking, what class would you give Nc1nc(N)c2nc(-c3ccccc3)[nH]c2n1 here?
MEDIUM

// bin(item) where item = O=C(NCCNc1ccnc(Nc2ccc(F)cc2)n1)Nc1ccc2c(c1)OCO2
LOW

Please classify: CCC(=O)c1c(-c2ccccc2)c2cc(Cl)ccc2c(=O)n1Cc1cc(C(=O)NC2CC2)n(C)n1
MEDIUM

Band of Cc1cccc(-c2cc(-c3c[nH]nc3-c3ccccn3)ccn2)c1 ?
MEDIUM

Please indicate the class for COc1ccc(CNC(=O)NC2CCN(c3ccnc(Nc4ccc(F)cc4)n3)C2)cc1 (stereo not shown) based on its %Inh.
HIGH

Form: Item = Cc1nn2c(=O)cc(N3CCOCC3)nc2n1Cc1cccc(Cl)c1Cl ; Class = ?
MEDIUM

Band for COc1ccc(-n2cnc3c(N)ncnc32)cc1 ?
MEDIUM

Place this compound in its band: COc1cc2nccc(Nc3ccc(OCc4ccc(NC(C)=O)cc4)cc3)c2cc1OC.Cl
HIGH

Bin this entry: CCc1nc(-c2cccc(C)c2)c(-c2ccncc2)s1
LOW

Field: class (%Inh) — entry: COc1cccc(-n2cnc3c(N)ncnc32)c1
LOW
